experiment: Evaluation of pharmacokinetic parameters for Drosporine following multiple co-administration of 3 mg Drosporine tablets and […] ethinyl estradiol to 12 healthy female subjects.; assay type: ADME, organism-based; parameters: dose 3 mg, route oral; details: human, in vivo; dose 3 mg, dosed compound id 30, dosed compound name DROSPIRENONE, gender female, regimen Once daily, route oral, sampling time1 1 day, study dosing duration 21 days, tissue Serum
quantity-kind: Tmax
Remember to put the unit after the number in your answer.

*Q* Kindly indicate its recorded Tmax. Item: C[C@]12CCC(=O)C=C1[C@@H]1C[C@@H]1[C@H]1[C@@H]3[C@@H]4C[C@@H]4[C@@]4(CCC(=O)O4)[C@@]3(C)CC[C@@H]12
*A* 1.7 h

---

assay: Evaluation of pharmacokinetic parameters for Drosporine following multiple co-administration of 3 mg Drosporine tablets and […] ethinyl estradiol to 12 healthy female subjects.; type: ADME, organism-based; parameters: dose 3 mg, route oral; details: human, in vivo; dose 3 mg, dosed compound id 30, dosed compound name DROSPIRENONE, gender female, regimen Once daily, route oral, sampling time1 21 day, study dosing duration 21 days, tissue Serum
quantity-kind: half-life (h)
// units = h; emit number, no label

*Q* Supply reported half-life belonging to this molecule: C[C@]12CCC(=O)C=C1[C@@H]1C[C@@H]1[C@H]1[C@@H]3[C@@H]4C[C@@H]4[C@@]4(CCC(=O)O4)[C@@]3(C)CC[C@@H]12
*A* 32.5
